Target: T1, ANK domain of Notch3 intracellular domain (N3ICD-ANK) (UniProt Q9UM47 1838-2000)
T1 construct: Notch3, ANK domain of the intracellular domain; position 1838-2000, length 163 aa printed
T1 sequence (looked up): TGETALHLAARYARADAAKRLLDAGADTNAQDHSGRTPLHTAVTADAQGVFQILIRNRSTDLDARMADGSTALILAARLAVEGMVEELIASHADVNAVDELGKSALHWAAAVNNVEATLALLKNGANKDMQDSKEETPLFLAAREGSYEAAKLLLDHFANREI
Assay: SPR; BIAcore T200 (GE Healthcare); dissociation constant calculated with BIA-evaluation software; which partner was immobilised is not stated
Details: both partners purified
Bridge positions count the residues as written; N and C are the ends. Square brackets hold non-standard residues; d marks the D form. Ends that are not written are not given here. S5 = C=CCCC[C@](C)(N)C(=O)O
EXPERIMENTAL READOUT: pKd
Keep it numeric: pKd is minus log10 of the concentration in mol/L.

Measured pKd of YAKRI[S5]YQLLSK[S5]L (staple 6-13) [SAH-mAH2-5, N1DARP-derived stapled peptide] : 7.16
